Data credit: the kinase profiling compilation of Christmann-Franck et al. (2016)

Reported residual activity values are given for each entry in this list.
ASSAYED_TARGET: SIK2 (human) (UniProt Q9H0K1)
Sequence (Q9H0K1 whole entry, looked up): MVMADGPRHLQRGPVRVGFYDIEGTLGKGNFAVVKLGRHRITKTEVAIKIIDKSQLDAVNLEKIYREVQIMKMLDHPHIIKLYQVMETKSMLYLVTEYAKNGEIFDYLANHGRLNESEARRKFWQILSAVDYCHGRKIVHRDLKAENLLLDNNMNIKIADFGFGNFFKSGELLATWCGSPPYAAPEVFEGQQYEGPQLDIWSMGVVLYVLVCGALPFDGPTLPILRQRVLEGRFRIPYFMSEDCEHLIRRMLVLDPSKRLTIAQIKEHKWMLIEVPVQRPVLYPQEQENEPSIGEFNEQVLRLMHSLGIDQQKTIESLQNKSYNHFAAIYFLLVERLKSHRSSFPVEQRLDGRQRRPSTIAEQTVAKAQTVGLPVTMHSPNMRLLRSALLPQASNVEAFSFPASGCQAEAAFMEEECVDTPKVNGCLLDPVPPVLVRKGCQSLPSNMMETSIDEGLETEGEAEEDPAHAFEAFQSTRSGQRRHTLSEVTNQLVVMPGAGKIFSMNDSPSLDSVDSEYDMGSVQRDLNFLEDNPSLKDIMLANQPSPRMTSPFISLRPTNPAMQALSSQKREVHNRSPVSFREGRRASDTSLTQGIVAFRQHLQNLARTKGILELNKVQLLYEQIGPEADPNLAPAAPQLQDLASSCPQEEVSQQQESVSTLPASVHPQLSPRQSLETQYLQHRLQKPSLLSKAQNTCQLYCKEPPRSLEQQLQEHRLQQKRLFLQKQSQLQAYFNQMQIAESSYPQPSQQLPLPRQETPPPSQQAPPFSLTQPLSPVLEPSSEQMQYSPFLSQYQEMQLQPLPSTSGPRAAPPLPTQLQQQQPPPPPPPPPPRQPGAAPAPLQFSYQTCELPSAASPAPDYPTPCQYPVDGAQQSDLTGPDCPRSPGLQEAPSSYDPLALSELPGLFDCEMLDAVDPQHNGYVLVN
TEST_DESCRIPTION: radiometric filter-binding kinase assay, Kinase HotSpot
CONDITION_INFO: compound 0.5 µM; ATP 10 µM
READOUT_NAME: residual activity

[
  {
    "SMILES_STRUCTURE": "NC(=O)c1cccc(-c2cc(Nc3ccc(OC(F)(F)F)cc3)ncn2)c1",
    "READOUT_NAME": "residual activity",
    "RESULT": "108%"
  },
  {
    "SMILES_STRUCTURE": "COc1cc(Nc2c(C#N)cnc3cc(OCCCN4CCN(C)CC4)c(OC)cc23)c(Cl)cc1Cl",
    "READOUT_NAME": "residual activity",
    "RESULT": "1.93%"
  },
  {
    "SMILES_STRUCTURE": "COc1ccc(S(=O)(=O)N(CCO)c2ccccc2CN(C)C/C=C/c2ccc(Cl)cc2)cc1",
    "READOUT_NAME": "residual activity",
    "RESULT": "97.4%"
  },
  {
    "SMILES_STRUCTURE": "COc1ccc(Cl)cc1NC(=O)Nc1cc(C)nc2ccccc12",
    "READOUT_NAME": "residual activity",
    "RESULT": "87.8%"
  },
  {
    "SMILES_STRUCTURE": "C[C@@H]1CCN(C(=O)CC#N)C[C@@H]1N(C)c1ncnc2[nH]ccc12",
    "READOUT_NAME": "residual activity",
    "RESULT": "89.2%"
  },
  {
    "SMILES_STRUCTURE": "CCCCc1c(-c2ccc(OC)cc2)[nH]c2nccnc12",
    "READOUT_NAME": "residual activity",
    "RESULT": "98.4%"
  },
  {
    "SMILES_STRUCTURE": "COc1ccc2c(c1)/C(=C/c1cnc[nH]1)C(O)=N2",
    "READOUT_NAME": "residual activity",
    "RESULT": "100%"
  },
  {
    "SMILES_STRUCTURE": "CN(C)CCCn1cc(C2=C(c3c[nH]c4ccccc34)C(=O)NC2=O)c2ccccc21",
    "READOUT_NAME": "residual activity",
    "RESULT": "94.7%"
  },
  {
    "SMILES_STRUCTURE": "Cc1cccc(-c2nc(C(C)(C)C)[nH]c2-c2ccc3c(c2)OCO3)n1",
    "READOUT_NAME": "residual activity",
    "RESULT": "91.4%"
  },
  {
    "SMILES_STRUCTURE": "Cn1c2ccccc2c2c3c(c4c5ccccc5n(CCC#N)c4c21)CNC3=O",
    "READOUT_NAME": "residual activity",
    "RESULT": "54.5%"
  },
  {
    "SMILES_STRUCTURE": "N#C/C(=C\\c1ccc(O)c(O)c1)C(=O)NCc1ccccc1",
    "READOUT_NAME": "residual activity",
    "RESULT": "99.7%"
  },
  {
    "SMILES_STRUCTURE": "c1ccc2c(-c3ccncc3)c[nH]c2c1",
    "READOUT_NAME": "residual activity",
    "RESULT": "90.5%"
  },
  {
    "SMILES_STRUCTURE": "COc1cc2ncnc(Nc3ccc(Oc4ccccc4)cc3)c2cc1OC",
    "READOUT_NAME": "residual activity",
    "RESULT": "97.7%"
  },
  {
    "SMILES_STRUCTURE": "O=C1C(Cl)=C(N2C(=O)CCC2=O)C(=O)c2ccccc21",
    "READOUT_NAME": "residual activity",
    "RESULT": "92.8%"
  },
  {
    "SMILES_STRUCTURE": "CN(C)c1ccc(/C=C2\\C(=O)Nc3ccccc32)cc1",
    "READOUT_NAME": "residual activity",
    "RESULT": "101%"
  },
  {
    "SMILES_STRUCTURE": "CN(C)S(=O)(=O)c1ccc2c(c1)/C(=C/c1cc3c([nH]1)CCCC3)C(=O)N2",
    "READOUT_NAME": "residual activity",
    "RESULT": "86.4%"
  },
  {
    "SMILES_STRUCTURE": "CC(C)(C)c1cc(C=C(C#N)C#N)cc(Br)c1O",
    "READOUT_NAME": "residual activity",
    "RESULT": "115%"
  },
  {
    "SMILES_STRUCTURE": "O=C1Nc2ccc(Br)cc2/C1=C\\c1cc2c([nH]1)CCCC2",
    "READOUT_NAME": "residual activity",
    "RESULT": "92.7%"
  },
  {
    "SMILES_STRUCTURE": "Ic1cccc(CSc2nnc(-c3ccncc3)o2)c1",
    "READOUT_NAME": "residual activity",
    "RESULT": "100%"
  },
  {
    "SMILES_STRUCTURE": "Cc1nc(-c2ccccc2)c(-c2ccncc2)o1",
    "READOUT_NAME": "residual activity",
    "RESULT": "86.2%"
  },
  {
    "SMILES_STRUCTURE": "COc1cc2ncnc(Nc3ccc(OCc4ccccc4)cc3)c2cc1OC",
    "READOUT_NAME": "residual activity",
    "RESULT": "73.7%"
  },
  {
    "SMILES_STRUCTURE": "Fc1ccc(-c2nc3n(c2-c2ccncc2)CCS3)cc1",
    "READOUT_NAME": "residual activity",
    "RESULT": "108%"
  },
  {
    "SMILES_STRUCTURE": "Cc1cncc2cccc(S(=O)(=O)N3CCCN(C(=O)CN)C[C@H]3C)c12",
    "READOUT_NAME": "residual activity",
    "RESULT": "89.4%"
  }
]
